Origin of values: patent US6399614B1

Property: ED (10 min disappearance of contractions); scope: individual compounds
test system: rhythmic bladder voiding contractions; assay: Volume-induced rhythmic bladder voiding contractions in anaesthetized rats; format: in vivo, rat; conditions: Rattus norvegicus, 10 min; extrapolated dose inducing 10 min of disappearance of the contractions; intravenous, anaesthetized rats; read-out: ED10 min
ENDPOINT: ED (10 min disappearance of contractions) (mg/kg)

COMPOUND	READOUT_UNIT	SIGN_QUALIFIER	OBS_VALUE
COC(=O)c1ccccc1N(CCN1CCN(c2ccccc2OC)CC1)C(=O)C1CCCCC1	mg/kg	=	0.101
COc1ccccc1N1CCN(CCNc2ccccc2)CC1 [Compound AA, reference compound]	mg/kg	=	0.663
COc1ccccc1N1CCN(CCN(C(=O)C2CCCCC2)c2ccc([N+](=O)[O-])cc2)CC1 [Compound C, reference compound]	mg/kg	>	1
COc1ccccc1N1CCN(CCNc2ccccc2[N+](=O)[O-])CC1	mg/kg	=	0.192
O=C(C1CCCCC1)N(CCN1CCN(c2cccc3[nH]ccc23)CC1)c1ccccc1[N+](=O)[O-]	mg/kg	=	0.266
COc1ccccc1N1CCN(CCN(C(=O)C2CCCCC2)c2ccccc2OC)CC1	mg/kg	=	0.093
COc1cc(NC(C)=O)ccc1N1CCN(CCN(C(=O)C2CCCCC2)c2ccccc2OC(F)(F)F)CC1	mg/kg	=	0.254
COc1ccccc1N1CCN(CCNc2ccccc2C(C)=O)CC1	mg/kg	=	0.318

* * *

biological target: human 5-HT1A serotonergic receptor (Homo sapiens); assay: Radioreceptor binding, recombinant human 5-HT1A receptors ([3H]8-OH-DPAT, HeLa membranes); details: recombinant human receptor, [3H]8-OH-DPAT; Ki from IC50 by Cheng & Prusoff; read-out: Binding affinity for the 5-HT1A receptor, Ki
Sequence (P08908 whole entry): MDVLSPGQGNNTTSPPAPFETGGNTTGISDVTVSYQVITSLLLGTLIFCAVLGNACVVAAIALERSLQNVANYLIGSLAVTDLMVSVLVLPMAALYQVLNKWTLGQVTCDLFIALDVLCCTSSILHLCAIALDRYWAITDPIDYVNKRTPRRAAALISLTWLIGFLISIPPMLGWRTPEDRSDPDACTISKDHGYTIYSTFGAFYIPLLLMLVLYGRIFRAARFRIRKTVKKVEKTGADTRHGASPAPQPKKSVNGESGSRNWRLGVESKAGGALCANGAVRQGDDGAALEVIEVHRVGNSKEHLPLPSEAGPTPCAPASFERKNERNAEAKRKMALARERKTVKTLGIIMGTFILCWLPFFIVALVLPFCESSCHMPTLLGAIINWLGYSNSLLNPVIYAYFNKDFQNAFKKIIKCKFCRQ
pKi: −log10 of the molar value.

MOLECULE	pKi
COc1ccccc1N1CCN(CCN(C(=O)C2CCCCC2)c2ccccc2I)CC1 [Example 8]	9.44
COc1ccccc1N1CCN(CCN(C(=O)c2ccsc2)c2ccccc2[N+](=O)[O-])CC1 [Example 35]	8.10
COc1ccccc1N1CCN(CCN(C(=O)C2CCCCC2)c2ccccc2NS(C)(=O)=O)CC1 [Example 46]	8.22
COc1cc(N)ccc1N1CCN(CCN(C(=O)C2CCCCC2)c2ccccc2OCC(F)(F)F)CC1 [Example 66]	9.12
N#Cc1ccccc1N(CCN1CCN(c2ccccc2OC(F)(F)F)CC1)C(=O)C1CCCCC1 [Example 77]	9.24
COc1ccccc1N1CCN(CCN(C(=O)c2cccs2)c2ccccc2[N+](=O)[O-])CC1 [Example 34]	7.79
COc1ccccc1N1CCN(CCN(C(=O)C2CCCCC2)c2ccccc2C(=O)NC(=O)C2CCCCC2)CC1 [Example 16]	8.54
O=C(C1CCCCC1)N(CCN1CCN(c2ccccc2OC(F)(F)F)CC1)c1ccccc1OC(F)(F)F [Example 72]	8.91
COC(=O)c1ccccc1N(CCN1CCN(c2ccccc2OC)CC1)C(=O)C1CCCCC1 [Example 18]	9.22
O=C(C1CCCCC1)N(CCN1CCN(c2cccc3c2ccn3C(=O)C2CCCCC2)CC1)c1ccccc1OC(F)(F)F [Example 84]	7.63
COc1cc(NC(C)=O)ccc1N1CCN(CCN(C(=O)C2CCCCC2)c2ccccc2OCC(F)(F)F)CC1 [Example 67]	8.32
COc1ccccc1N1CCN(CCN(C(=O)C2CCCCC2)c2ccccc2NC(C)=O)CC1 [Example 28]	7.73
FC(F)(F)Oc1ccccc1NCCN1CCN(c2cccc3[nH]ccc23)CC1 [Example 50]	8.94
COc1ccccc1N1CCN(CCN(C(=O)C2CCCCC2)c2ccccc2C(=O)N(C)C)CC1 [Example 21]	8.57
COc1cc([N+](=O)[O-])ccc1N1CCN(CCN(C(=O)C2CCCCC2)c2ccccc2OCC(F)(F)F)CC1 [Example 65]	7.73
O=C(C1CCCCC1)N(CCN1CCN(c2cccc3[nH]ccc23)CC1)c1ccccc1[N+](=O)[O-] [Example 13]	9.30
COc1ccccc1N1CCN(CCNc2ccccc2Oc2ccccc2)CC1 [Example 5]	7.83
COc1cc(NC(C)=O)ccc1N1CCN(CCN(C(=O)C2CCCCC2)c2ccccc2OC(F)(F)F)CC1 [Example 57]	9.13
COc1cc(N)ccc1N1CCN(CCN(C(=O)C2CCCCC2)c2ccccc2OC(F)(F)F)CC1 [Example 56]	8.67
O=C(C1CCCCC1)N(CCN1CCN(c2cccc3[nH]ccc23)CC1)c1ccccc1OCC(F)(F)F [Example 69]	9.49
FC(F)(F)COc1ccccc1NCCN1CCN(c2cccc3[nH]ccc23)CC1 [Example 68]	8.03
COc1cc(NC(=O)C(F)(F)F)ccc1N1CCN(CCN(C(=O)C2CCCCC2)c2ccccc2OC(F)(F)F)CC1 [Example 58]	8.61
COc1ccccc1N1CCN(CCN(C(=O)C2CCCCC2)c2ccccc2C(=O)OCc2ccccc2)CC1 [Example 49]	9.77
COc1ccccc1N1CCN(CCN(C(=O)C2CCCCC2)c2ccccc2C(F)(F)F)CC1 [Example 26]	8.57
COC(=O)c1ccccc1NCCN1CCN(c2ccccc2OC)CC1 [Example 17]	7.70
COc1ccccc1N1CCN(CCN(C(=O)c2cnccn2)c2ccccc2[N+](=O)[O-])CC1 [Example 38]	8.99
COc1ccccc1N1CCN(C(C)CN(C(=O)C2CCCCC2)c2ccccc2[N+](=O)[O-])CC1 (stereo not drawn) [Example 45]	8.66
O=[N+]([O-])c1ccccc1NCCN1CCN(Cc2cc(Cl)ccc2Cl)CC1 [Example 14]	7.99
COc1ccccc1N1CCN(CCNc2ccccc2OC(F)(F)F)CC1 [Example 3]	7.99
COc1ccccc1N1CCN(CCNc2ccccc2I)CC1 [Example 7]	8.42
O=C(C1CCCCC1)N(CCN1CCN(c2cccc3[nH]ccc23)CC1)c1ccccc1I [Example 76]	9.16
COc1cc(NC(C)=O)ccc1N1CCN(CCN(C(=O)C2CCCCC2)c2ccccc2[N+](=O)[O-])CC1 [Example 70]	7.55
COc1ccccc1N1CCN(CCN(C(=O)C2CCCCC2)c2ccccc2N)CC1 [Example 27]	9.24

* * *

tested on: rhythmic bladder voiding contractions; assay: Volume-induced rhythmic bladder voiding contractions in anaesthetized rats; type: in vivo, rat; details: Rattus norvegicus, 10 min; extrapolated dose inducing 10 min of disappearance of the contractions; intravenous, anaesthetized rats; read-out: ED10 min
ENDPOINT: ED (10 min disappearance of contractions) (mg/kg)

COMPOUND	SIGN_QUALIFIER	OBS_VALUE
COc1ccccc1N1CCN(CCN(C(=O)C2CCCCC2)c2ccccc2)CC1 [Compound A, reference compound]	=	0.65
COc1ccccc1NCCN1CCN(c2cccc3[nH]ccc23)CC1	=	0.181
COc1cc(N)ccc1N1CCN(CCN(C(=O)C2CCCCC2)c2ccccc2OC(F)(F)F)CC1	=	0.061
COc1ccccc1N1CCN(CCN(C(=O)C2CCCCC2)c2ccccc2OCC(F)(F)F)CC1	=	0.033
CCN(CC)CC#CCOC(=O)C(O)(c1ccccc1)C1CCCCC1 (centres unmarked) [Oxybutinin, oxybutynin, reference compound]	=	7.77
O=C(C1CCCCC1)N(CCN1CCN(c2cccc3[nH]ccc23)CC1)c1ccccc1OCC(F)(F)F	=	0.06
COc1ccccc1N1CCN(CCNc2cccc([N+](=O)[O-])c2)CC1 [Compound D, reference compound]	>	1
Cc1c(-c2ccccc2)oc2c(C(=O)OCCN3CCCCC3)cccc2c1=O [Flavoxate, flavoxate, reference compound]	>	10

* * *

Below, each entry is listed alongside its reported ED50.
tested on: rhythmic bladder voiding contractions; test: Volume-induced rhythmic bladder voiding contractions in anaesthetized rats; format: in vivo, rat; conditions: Rattus norvegicus; extrapolated dose inducing a reduction of the number of contractions >30% in 50% of treated rats; intravenous; read-out: ED50 (frequency)

COMPOUND	ED50
COc1ccccc1N1CCN(CCNc2cccc([N+](=O)[O-])c2)CC1 [Compound D, reference compound]	> 1 mg/kg
COc1ccccc1N(CCN1CCN(c2cccc3[nH]ccc23)CC1)C(=O)C1CCCCC1 [Example 48]	0.014 mg/kg
COc1ccccc1N1CCN(CCN(C(=O)C2CCCCC2)c2ccccc2[N+](=O)[O-])CC1 [Example 2]	0.009 mg/kg
COc1ccccc1N1CCN(CCN(C(=O)C2CCCCC2)c2ccccc2OCC(F)(F)F)CC1 [Example 42]	0.018 mg/kg
COc1ccccc1N1CCN(CCNc2ccccc2[N+](=O)[O-])CC1 [Example 1]	0.055 mg/kg
COc1ccccc1N1CCN(CCN(C(=O)C2CCCCC2)c2ccccc2)CC1 [Compound A, reference compound]	0.033 mg/kg
O=C(C1CCCCC1)N(CCN1CCN(c2cccc3[nH]ccc23)CC1)c1ccccc1OC(F)(F)F [Example 51]	0.2 mg/kg
O=C(C1CCCCC1)N(CCN1CCN(c2cccc3[nH]ccc23)CC1)c1ccccc1OCC(F)(F)F [Example 69]	0.014 mg/kg
O=C(C1CCCCC1)N(CCN1CCN(c2cccc3[nH]ccc23)CC1)c1ccccc1[N+](=O)[O-] [Example 13]	0.029 mg/kg
COC(=O)c1ccccc1N(CCN1CCN(c2ccccc2OC)CC1)C(=O)C1CCCCC1 [Example 18]	0.017 mg/kg
COc1ccccc1N1CCN(CCNc2ccccc2)CC1 [Compound AA, reference compound]	0.244 mg/kg
COc1ccccc1N1CCN(CCNc2ccccc2C#N)CC1 [Example 10]	0.028 mg/kg
COc1ccccc1NCCN1CCN(c2cccc3[nH]ccc23)CC1 [Example 47]	0.02 mg/kg
COc1cc(N)ccc1N1CCN(CCN(C(=O)C2CCCCC2)c2ccccc2OC(F)(F)F)CC1 [Example 56]	0.021 mg/kg
COc1ccccc1N1CCN(CCNc2ccccc2C(C)=O)CC1 [Example 11]	0.04 mg/kg
CCN(CC)CC#CCOC(=O)C(O)(c1ccccc1)C1CCCCC1 (centres unmarked) [Oxybutinin, oxybutynin, reference compound]	> 10 mg/kg
COc1ccccc1N1CCN(CCN(C(=O)C2CCCCC2)c2ccccc2OC)CC1 [Example 23]	0.018 mg/kg
COc1cc(NC(C)=O)ccc1N1CCN(CCN(C(=O)C2CCCCC2)c2ccccc2OC(F)(F)F)CC1 [Example 57]	0.252 mg/kg
COc1ccccc1N1CCN(CCN(C(=O)C2CCCCC2)c2ccc([N+](=O)[O-])cc2)CC1 [Compound C, reference compound]	> 1 mg/kg
COc1ccccc1N1CCN(CCN(C(=O)C2CCCCC2)c2ccccc2C#N)CC1.Cl [Example 43]	0.004 mg/kg
COc1ccccc1N1CCN(CCNc2ccc([N+](=O)[O-])cc2)CC1 [Compound E, reference compound]	> 1 mg/kg
COc1ccccc1N1CCN(CCN(C(=O)C2CCCCC2)c2ccccc2N)CC1 [Example 27]	0.013 mg/kg
COc1cc(N)ccc1N1CCN(CCN(C(=O)C2CCCCC2)c2ccccc2OCC(F)(F)F)CC1 [Example 66]	0.058 mg/kg
